Listed here are binders together with their documented Kd.
Molecular target: Recombinant human FcRn (FcRn alpha and beta2-microglobulin) (human, UniProt P55899 24-290; P61769 21-119)
Sequence (P55899 24-290, chain 1 of 2): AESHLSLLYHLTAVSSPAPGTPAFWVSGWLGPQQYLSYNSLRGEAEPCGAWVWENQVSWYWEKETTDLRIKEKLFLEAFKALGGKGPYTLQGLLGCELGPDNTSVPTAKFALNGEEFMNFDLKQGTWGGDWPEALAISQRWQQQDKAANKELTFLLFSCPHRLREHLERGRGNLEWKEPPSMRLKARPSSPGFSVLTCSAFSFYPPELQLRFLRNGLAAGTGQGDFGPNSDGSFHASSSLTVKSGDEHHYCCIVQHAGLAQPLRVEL
Sequence (P61769 21-119, chain 2 of 2): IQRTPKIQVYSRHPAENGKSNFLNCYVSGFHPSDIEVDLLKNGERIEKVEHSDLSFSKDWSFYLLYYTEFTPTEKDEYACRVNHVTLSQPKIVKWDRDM
Experiment: SPR; produced in HEK
A number alone suffices; assume nM.

## Task Identify the reported Kd for the following entry. T5A-74M (Y296W/N315D/A330V/N361D/A378V/N434Y) Fc fragment (other) DKTHTCPPCPAPELLGGPSVFLFPPKPKDTLMISRTPEVTCVVVDVSHEDPEVKFNWYVDGVEVHNAKTKPREEQWNSTYRVVSVLTVLHQDWLDGKEYKCKVSNKALPVPIEKTISKAKGQPREPQVYTLPPSRDELTKDQVSLTCLVKGFYPSDIVVEWESNGQPENNYKTTPPVLDSDGSFFLYSKLTVDKSRWQQGNVFSCSVMHEALHYHYTQKSLSLSPGK
## Result 27.3

Next:
## Task Identify the reported Kd for the following entry. T5A-74I (T260A/N315D/A330V/N361D/A378V/N434Y) Fc fragment (other) DKTHTCPPCPAPELLGGPSVFLFPPKPKDTLMISRTPEVACVVVDVSHEDPEVKFNWYVDGVEVHNAKTKPREEQYNSTYRVVSVLTVLHQDWLDGKEYKCKVSNKALPVPIEKTISKAKGQPREPQVYTLPPSRDELTKDQVSLTCLVKGFYPSDIVVEWESNGQPENNYKTTPPVLDSDGSFFLYSKLTVDKSRWQQGNVFSCSVMHEALHYHYTQKSLSLSPGK
## Result 32.5

## Task Identify the reported Kd for the following entry. T5A-74J (E258I/N315D/A330V/N361D/A378V/N434Y) Fc fragment (other) DKTHTCPPCPAPELLGGPSVFLFPPKPKDTLMISRTPIVTCVVVDVSHEDPEVKFNWYVDGVEVHNAKTKPREEQYNSTYRVVSVLTVLHQDWLDGKEYKCKVSNKALPVPIEKTISKAKGQPREPQVYTLPPSRDELTKDQVSLTCLVKGFYPSDIVVEWESNGQPENNYKTTPPVLDSDGSFFLYSKLTVDKSRWQQGNVFSCSVMHEALHYHYTQKSLSLSPGK
## Result 30.2

Where these numbers come from: patent US20180355034A1
